System: Maize
Assay: Pre-emergence test/Greenhouse, Maize
Type: in vivo
Conditions: in vivo
Method: To produce a suitable preparation of the active compound, 1 part by weight of active compound is mixed with the stated amount of solvent, the stated amount of emulsifier is added and the concentrate is diluted with water to the desired concentration. Seeds of the test plants are sown in normal soil. After about 24 hours, the soil is watered with the preparation of active compound. Advantageously, the amount of water per unit area is kept constant. […]
measurement-name: degree of damage to the plants (% damage vs untreated control), Maize (%)

• CCCOC(=O)c1scc(C)c1S(=O)(=O)NC(=O)n1nc(OCC)n(C2CC2)c1=O = 0
• CCn1c(OC)nn(C(=O)NS(=O)(=O)c2c(C)cccc2C(=O)OC(C)C)c1=O = 0
• CCOC(=O)c1cccc(C)c1S(=O)(=O)NC(=O)n1nc(SC)n(C)c1=O = 0
• CCCOC(=O)c1cccc(C)c1S(=O)(=O)NC(=O)n1nc(SCC)n(C)c1=O = 30
• Cc1nc(C(=O)NS(=O)(=O)c2c(C)cccc2C(=O)OC(C)C)no1 = 0
• CCOC(=O)c1scc(C)c1S(=O)(=O)NC(=O)n1nc(OCC)n(C)c1=O = 0
• CCOC(=O)c1scc(C)c1S(=O)(=O)NC(=O)n1nc(OCC)n(C2CC2)c1=O = 10
• CCCc1nn(C(=O)[N-]S(=O)(=O)c2c(C)cccc2C(=O)OC)c(=O)n1C.[Na+] = 0
• COC(=O)c1cccc(C)c1S(=O)(=O)[N-]C(=O)n1nc(SC)n(C)c1=O.[Na+] = 0
• COC(=O)c1scc(C)c1S(=O)(=O)NC(=O)n1nc(OC)n(C)c1=O = 10
• CCOc1nn(C(=O)NS(=O)(=O)c2c(C)cccc2C(=O)OC)c(=O)n1C = 20
• CCCOC(=O)c1cccc(C)c1S(=O)(=O)NC(=O)n1nc(OCCC)n(C)c1=O = 20
• CCc1nn(C(=O)NS(=O)(=O)c2c(C)csc2C(=O)OC(C)C)c(=O)n1C = 0
• CCOn1c(SC)nn(C(=O)NS(=O)(=O)c2c(C)cccc2C(=O)OC)c1=O = 0
• CCOn1c(CC)nn(C(=O)NS(=O)(=O)c2c(C)csc2C(=O)OC)c1=O = 0
• CCOc1nn(C(=O)NS(=O)(=O)c2c(C)csc2C(=O)OC)c(=O)n1CC = 0
• COC(=O)c1cccc(C)c1S(=O)(=O)NC(=O)n1nc(SCCF)n(C2CC2)c1=O = 20
• CCCOC(=O)c1cccc(Cl)c1S(=O)(=O)NC(=O)n1nc(OCC)n(C)c1=O = 0
• CCCOC(=O)c1cccc(C)c1S(=O)(=O)NC(=O)n1nc(CCC)n(C)c1=O = 10
• CCOC(=O)c1scc(C)c1S(=O)(=O)NC(=O)n1nc(C(C)C)n(C)c1=O = 5
• COC(=O)c1scc(C)c1S(=O)(=O)NC(=O)c1noc(C)n1 = 30
• Cc1csc(C(=O)OC(C)C)c1S(=O)(=O)NC(=O)n1nc(OC(C)C)n(C)c1=O = 5
• COc1nn(C(=O)NS(=O)(=O)c2c(C)csc2C(=O)OC(C)C)c(=O)n1C = 0
• COC(=O)c1cccc(C)c1S(=O)(=O)NC(=O)c1ncc(C)o1 = 10
• CCOC(=O)c1scc(C)c1S(=O)(=O)NC(=O)n1nc(CC)n(C)c1=O = 0
• COC(=O)c1cccc(C)c1S(=O)(=O)NC(=O)n1nc(SCC(F)(F)F)n(C2CC2)c1=O = 0
• CCOc1nn(C(=O)NS(=O)(=O)c2c(C)cccc2C(=O)OC(C)C)c(=O)n1C = 30
• CCOC(=O)c1scc(C)c1S(=O)(=O)NC(=O)n1nc(OCC(F)(F)F)n(C)c1=O = 0
• CCn1c(OC)nn(C(=O)NS(=O)(=O)c2c(C)csc2C(=O)OC)c1=O = 10
• CCCc1nn(C(=O)NS(=O)(=O)c2c(C)csc2C(=O)OC)c(=O)n1OC = 0
• CCOc1nn(C(=O)NS(=O)(=O)c2c(C)csc2C(=O)OC(C)C)c(=O)n1CC = 10
• C#CCSc1nn(C(=O)NS(=O)(=O)c2c(C)cccc2C(=O)OC)c(=O)n1C = 0
• CCCOc1nn(C(=O)NS(=O)(=O)c2c(C)csc2C(=O)OCC)c(=O)n1C = 20
• CCOC(=O)c1scc(C)c1S(=O)(=O)NC(=O)n1nc(OCC)n(CC)c1=O = 10

These entries and their values trace back to patent US6441195B1.
